Experiment: qHTS assay to identify small molecule agonists of the estrogen receptor beta (ER-beta) signaling pathway - cell viability counter screen (AID 1259380); also: nearly all actives have a fitted effect of over 30% in size
Conditions: ER-beta-bla HEK293T viability, CellTiter-Glo luminescence, 16 h; series mostly up to 92.4 µM
Records with an inconclusive call do not appear. Activity calls are given as the source filed them. Calls follow the shape of the dose curve; as a rule, active = well fitted cell-killing curve with a large enough effect in the repeat runs; inconclusive = weak or mixed curves, or effect the other way; inactive = flat fitted curve, though single readings scatter.
Can you answer with just one of these options? true for active, false for inactive

Assay result, entry OCC(CBr)(CBr)CBr — outcome?
false

Assay result, entry CN1CCC[C@@H]1Cc1c[nH]c2ccc(CCS(=O)(=O)c3ccccc3)cc12 — outcome?
false

Assay result, entry C1CSCCS1 — outcome?
false

Assay result, entry CC(C)C[C@H](NC(=O)OCC1c2ccccc2-c2ccccc21)C(=O)O — outcome?
true

Assay result, entry CC(Oc1c(Cl)cccc1Cl)C1=NCCN1 (stereo not given) — outcome?
false

Assay result, entry COC(=O)C(C)O (stereo not given) — outcome?
false

Assay result, entry CC/C=C\CCOC(=O)CCCCC — outcome?
false

Assay result, entry O=CCCc1ccccc1 — outcome?
false

Assay result, entry OCc1ccccc1O — outcome?
false

###

Experiment: Caspase-3/7 induction in CHO-K1 cells by small molecules, qHTS cell viability counter screen (AID 1346979); also: nearly all actives have a fitted effect of over 35% in size
Conditions: CellTiter-Fluor fluorescence, 17 h; series mostly up to 92.4 µM
Inconclusive results are not listed. Activity calls are given as the source filed them. Calls follow the shape of the dose curve; as a rule, active = well fitted cell-killing curve with a large enough effect in the repeat runs; inconclusive = weak or mixed curves, or effect the other way; inactive = no such curve, though single readings can be large or run the other way.
Can you answer with just one of these options? active, inactive

Assay result, entry CCCc1c2oc(C(=O)O)cc(=O)c2cc2c(=O)cc(C(=O)O)n(CC)c12 — outcome?
inactive

Assay result, entry NC1=NCC2c3ccccc3Cc3ccccc3N12 (stereo not given) — outcome?
inactive

Assay result, entry O=C(O)[C@@H](O)[C@H](O)[C@H](O)[C@@H](O)C(=O)O — outcome?
inactive

Assay result, entry CCN[C@H]1CN(CCCOC)S(=O)(=O)c2sc(S(N)(=O)=O)cc21 — outcome?
inactive

Assay result, entry CC(C)O — outcome?
inactive

Assay result, entry CCCCCCn1c(=O)c2c(ncn2C)n(C)c1=O — outcome?
inactive

Assay result, entry CCOC(=O)NCCC[Si](OCC)(OCC)OCC — outcome?
inactive

Assay result, entry N#CSCC(=O)O — outcome?
inactive

Assay result, entry NS(=O)(=O)c1cc(-c2nn[nH]n2)c(NCc2cccs2)cc1Cl — outcome?
inactive

###

Assay: A CellTox Green Cytotoxicity Assay to monitor cytotoxicity in HepG2 cells - 24 hour (AID 1224878); also: nearly all actives have a fitted effect of over 45% in size
Settings: CellTox Green fluorescence; series mostly up to 76.8 µM
Source text: National Center for Advancing Translational Sciences [NCATS] NIH Chemical Genomics Center [NCGC] U.S. Environmental Protection Agency [EPA] National Institutes of Environmental Health Sciences [NIEHS] National Toxicology Program [NTP] Cell-based models are critical for drug discovery. […] Viable cells produce no appreciable increases in fluorescence. Therefore, the fluorescence signal produced by the binding interaction with dead cell DNA is proportional to cytotoxicity. […]
Records with an inconclusive call do not appear. The source made the active and inactive calls. Calls follow the shape of the dose curve; as a rule, active = well fitted activation curve with a large enough effect in the repeat runs; inconclusive = weak or mixed curves; inactive = flat fitted curve, though single readings scatter.
Can you answer with just one of these options? True (active), False (inactive)

Solved cases below.
compound: O=C1CCCCCCCCCCC(=O)OCCO1
class: True
//
compound: OCc1ccccc1O
class: False
//
compound: COC(=O)c1ccc(OC)cc1
class: False
//
compound: CCCCOc1cc(C(=O)NCCN(CC)CC)c2ccccc2n1
class: True
//
compound: Cc1ccsc1C(=CCCN1CCC[C@@H](C(=O)O)C1)c1sccc1C
class: False
//
compound: Nc1cccc(S(=O)(=O)O)c1
class: False

Assay result, entry CCCCC(CC)COC(=O)COc1cc(Cl)c(Cl)cc1Cl (stereo not given) — outcome?
False

Assay result, entry CC(=O)Nc1ccc(C)c(Cl)c1 — outcome?
False

Assay result, entry NNS(=O)(=O)c1ccc(Oc2ccc(S(=O)(=O)NN)cc2)cc1 — outcome?
False

Assay result, entry CC1(C)C(=O)N(Cl)C(=O)N1Br — outcome?
False

Assay result, entry COC(C)CCO (stereo not given) — outcome?
False

Assay result, entry CCCCCCn1c(=O)c2c(ncn2C)n(C)c1=O — outcome?
False

Assay result, entry NC(=O)Cc1cccc(C(=O)c2ccccc2)c1N — outcome?
False

Assay result, entry CCCCCCCOC(=O)CCC — outcome?
False

###

Assay: qHTS assay to test for compound auto fluorescence at 535 nm (green) in HEK293 cell free culture (AID 720682)
Details: cell-free medium, green autofluorescence 485/535 nm, stronger effect = higher value; series mostly up to 91.3 µM
Active and inactive are the calls of the source. The call rests on the fitted dose curve; in most records, active means well fitted curve in the direction sought with a large enough effect in the repeat runs; inconclusive means weak or mixed curves; inactive means flat fitted curve, though single readings scatter.
observed_property: activity change

structure_smiles: C[C@]12C(=O)OC(=O)[C@H]1[C@H]1C=C[C@@H]2C1
observed_property: activity change
result: inactive
//
structure_smiles: O=C(Cl)c1cccc([N+](=O)[O-])c1
observed_property: activity change
result: inactive
//
structure_smiles: CCCCCCCOC(=O)CCC
observed_property: activity change
result: inactive

###

Target: Luciferin 4-monooxygenase (Photinus pyralis) (UniProt P08659)
Sequence (P08659 whole entry, looked up): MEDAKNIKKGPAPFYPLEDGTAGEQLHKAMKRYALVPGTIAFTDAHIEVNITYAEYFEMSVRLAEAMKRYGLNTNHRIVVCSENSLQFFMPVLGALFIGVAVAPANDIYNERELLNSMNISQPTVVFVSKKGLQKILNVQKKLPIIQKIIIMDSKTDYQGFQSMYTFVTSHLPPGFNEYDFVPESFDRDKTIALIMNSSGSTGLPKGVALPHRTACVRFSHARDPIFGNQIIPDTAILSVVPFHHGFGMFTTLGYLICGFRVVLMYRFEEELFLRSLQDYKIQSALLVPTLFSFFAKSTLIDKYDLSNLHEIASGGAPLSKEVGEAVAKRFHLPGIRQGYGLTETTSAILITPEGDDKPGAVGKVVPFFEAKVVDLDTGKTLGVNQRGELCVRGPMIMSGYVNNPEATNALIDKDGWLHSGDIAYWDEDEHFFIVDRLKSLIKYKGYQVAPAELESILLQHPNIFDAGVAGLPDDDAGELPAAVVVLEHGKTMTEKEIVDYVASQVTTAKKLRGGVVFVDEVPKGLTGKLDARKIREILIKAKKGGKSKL
Assay: qHTS assay to identify small molecule inhibitors of firefly luciferase (AID 1224835); also: nearly all actives have a fitted effect of over 25% in size
Conditions: purified P. pyralis luciferase, luminescence inhibition; series mostly up to 115 µM
Records with an inconclusive call do not appear. Active and inactive are the calls of the source. The call rests on the fitted dose curve; in most records, active means well fitted inhibition curve with a large enough effect in the repeat runs; inconclusive means weak or mixed curves; inactive means flat fitted curve, though single readings scatter.
Can you answer with just one of these options? active, inactive

Assay result, entry O=Cc1ccc(F)c(Br)c1 — outcome?
inactive

Assay result, entry COc1cc(C)ccc1C(C)C — outcome?
inactive

Assay result, entry CCCNC(C)C(=O)Nc1c(C)csc1C(=O)OC (configuration not stated) — outcome?
inactive

###

Target: Cytochrome P450 2D6 (Homo sapiens)
Experiment: Cytochrome P450 Family 2 Subfamily D Member 6 (CYP2D6) small molecule antagonists: luciferase reporter qHTS assay (AID 1671196); also: nearly all actives have a fitted effect of over 50% in size; also: potency is read from the fitted curve at half-maximal effect
Details: P450-Glo CYP2D6 enzyme assay, luciferin luminescence, 1 h; series mostly up to 115 µM
Results filed as inconclusive are left out. The source made the active and inactive calls. The call rests on the fitted dose curve; in most records, active means well fitted inhibition curve with a large enough effect in the repeat runs; inconclusive means weak or mixed curves; inactive means no such curve, though single readings can be large or run the other way.
observed_property: Potency

compound: CC(C)=CCCC(C)CCOC=O (stereo unspecified)
Potency: inactive
//
compound: CCC(=O)Nc1ccc(O)cc1
Potency: inactive
//
compound: CN1CCN(c2c(F)cc3c(=O)c(C(=O)O)cn(CCF)c3c2F)CC1
Potency: inactive
//
compound: CCC/C=C/CO
Potency: inactive
//
compound: Oc1ccccc1F
Potency: inactive

Please give measured Potency of the following entry: CC(=O)Nc1ccc(C)c(Cl)c1
inactive

Please give measured Potency of the following entry: CCCNC(C)C(=O)Nc1c(C)csc1C(=O)OC (stereo unspecified)
inactive

Please give measured Potency of the following entry: ICCc1ccccc1
6.95 µM (active)

Please give measured Potency of the following entry: CC1CN(c2ccccc2)NC1=O (stereo unspecified)
31.7 µM (active)

Please give measured Potency of the following entry: O=C(O)[C@@H](O)[C@H](O)[C@H](O)[C@@H](O)C(=O)O
inactive

Please give measured Potency of the following entry: COC(=O)N[C@H](C(=O)N[C@@H](Cc1ccccc1)[C@@H](O)CN(Cc1ccc(-c2ccccn2)cc1)NC(=O)[C@@H](NC(=O)OC)C(C)(C)C)C(C)(C)C
inactive

Please give measured Potency of the following entry: CC(C)(C)c1cccc(O)c1
inactive

###

Target: Cytochrome P450 2C19 (Homo sapiens)
Assay: Cytochrome P450 Family 2 Subfamily C Member 19 (CYP2C19) small molecule antagonists: luciferase reporter qHTS assay (AID 1671197); also: nearly all actives have a fitted effect of over 65% in size
Details: P450-Glo CYP2C19 enzyme, luciferin luminescence, 1 h; series mostly up to 115 µM
Records with an inconclusive call do not appear. Activity calls are given as the source filed them. The call rests on the fitted dose curve; in most records, active means well fitted inhibition curve with a large enough effect in the repeat runs; inconclusive means weak or mixed curves; inactive means no such curve, though single readings can be large or run the other way.
Can you answer with just one of these options? active, inactive

Solved cases below.
compound: CC(C)C(=O)OC/C=C/c1ccccc1
target_under_test: Cytochrome P450 2C19 (Homo sapiens)
class: active
//
compound: NCCC(O)(P(=O)(O)O)P(=O)(O)O
target_under_test: Cytochrome P450 2C19 (Homo sapiens)
class: inactive

Assay result, entry CCOC(=O)c1cc(=O)c2c(OCC(COc3cccc4oc(C(=O)OCC)cc(=O)c34)OC(=O)[C@@H](N)CCCCN)cccc2o1 — outcome?
inactive

Assay result, entry CC(=O)OC(C)OC(C)=O — outcome?
inactive

Assay result, entry O=C(CCCl)NCc1ccccc1 — outcome?
inactive

Assay result, entry CN1C(=O)CC(c2ccccc2)C1=O (centres undefined) — outcome?
inactive

Assay result, entry C/C(=N\O)[C@@H](C)NCC(C)(C)CN[C@H](C)/C(C)=N/O — outcome?
inactive

Assay result, entry CCC(=O)Nc1ccc(O)cc1 — outcome?
inactive

Assay result, entry CCCCCCCCCCCCOCCOS(=O)(=O)O — outcome?
active

Assay result, entry OCCN(CCO)CCN(CCO)CCO — outcome?
inactive

Assay result, entry CCOC(=O)NCCC[Si](OCC)(OCC)OCC — outcome?
inactive

###

Biological target: Glucocorticoid receptor (Homo sapiens)
Assay: qHTS assay to identify small molecule agonists of the glucocorticoid receptor (GR) signaling pathway (AID 720691)
Details: GR-bla HeLa, beta-lactamase reporter ratio, 18 h; series mostly up to 62.4 µM
Results filed as inconclusive are left out. Activity calls are given as the source filed them. Calls come from the whole dose curve; as a rule, active = well fitted activation curve with a large enough effect in the signal ratio in the repeat runs (not every such curve was filed as active); inconclusive = weak or mixed curves, or effect the other way; inactive = no such curve, though single readings can be large or run the other way; the % refers to the signal ratio.

structure_smiles: ClC(Cl)Cl
outcome: inactive
//
structure_smiles: NC/C=C/C(=O)O
outcome: inactive
//
structure_smiles: CCNCCO
outcome: inactive

Source: PubChem BioAssay (Tox21)
